# measurement-target: GLP-1R (Homo sapiens)
# Sequence (P43220 24-463): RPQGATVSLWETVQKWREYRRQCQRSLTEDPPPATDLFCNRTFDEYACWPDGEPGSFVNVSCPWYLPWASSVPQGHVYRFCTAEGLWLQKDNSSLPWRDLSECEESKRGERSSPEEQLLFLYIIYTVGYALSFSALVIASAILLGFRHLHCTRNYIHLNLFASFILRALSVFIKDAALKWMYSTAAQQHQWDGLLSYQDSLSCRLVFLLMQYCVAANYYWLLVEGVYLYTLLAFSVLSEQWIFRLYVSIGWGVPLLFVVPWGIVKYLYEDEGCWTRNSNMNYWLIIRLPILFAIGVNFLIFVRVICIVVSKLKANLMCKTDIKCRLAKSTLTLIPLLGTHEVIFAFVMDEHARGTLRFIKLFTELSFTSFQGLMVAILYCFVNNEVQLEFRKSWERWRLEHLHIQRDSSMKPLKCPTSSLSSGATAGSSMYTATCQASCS
# run-description: GLP-1R activation: cAMP increase in CHO cells stably expressing GLP-1R
# Assay type: cell-based
# run-conditions: cAMP increase, CHO cells stably expressing GLP-1R, 10 point dose response, 30 minutes incubation; read-out: EC50
# EC50 listing for each entry below
Dear colleague, please return just the value in nM, with no unit written.

See these solved cases before continuing.
compound | EC50 (nM)
N#Cc1ccc(COc2nccc(-c3ccc(Cc4nc5c(F)cc(C(=O)O)cc5n4Cc4ncco4)cc3F)n2)c(F)c1 | 1.48
COCCn1c(Cc2ccc(-c3cccc(OCc4cc(F)c(C#N)cc4OC)n3)cc2F)nc2ccc(C(=O)O)cc21 | 3.13
CC1(C)CC[C@@H](Cn2c(Cc3cc(F)c(-c4cccc(OCc5ccc(C#N)cc5F)n4)cc3F)nc3ccc(C(=O)O)cc32)O1 (racemic) | 45.5

Request - read-out EC50 | tested on GLP-1R (Homo sapiens) | compound COCCn1c(Cc2cc(F)c(-c3cccc(OCc4ccc(Cl)nc4C)n3)cc2F)nc2ccc(C(=O)O)cc21
14.8
